# Test System: Kelch-like ECH-associated protein-1 (Keap1) (UniProt Q14145 321-609, limits assumed)
# Sequence (Q14145 321-609 limits assumed): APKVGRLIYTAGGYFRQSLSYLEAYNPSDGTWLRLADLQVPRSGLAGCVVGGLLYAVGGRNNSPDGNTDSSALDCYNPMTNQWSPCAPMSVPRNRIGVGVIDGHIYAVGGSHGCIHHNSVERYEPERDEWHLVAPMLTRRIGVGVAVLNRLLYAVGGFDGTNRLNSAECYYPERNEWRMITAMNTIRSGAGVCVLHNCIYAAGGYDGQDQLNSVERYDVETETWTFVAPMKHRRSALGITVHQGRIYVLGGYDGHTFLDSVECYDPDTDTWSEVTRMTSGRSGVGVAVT
# Procedure Text: fluorescence anisotropy competition assay, displacement of the fluorescent Nrf2 peptide from Keap1
Square brackets hold non-standard residues; d marks the D form. 2Nal = N[C@@H](Cc1ccc2ccccc2c1)C(=O)O
Property Measured: IC50 (nM)
Answers are plain numbers, in nM.

[Q] I would be grateful if you could share the reported IC50 for cyclo(FF[2Nal][dR][dP]PRRFQLDPETGE) (SMILES CC(C)C[C@@H]1NC(=O)[C@H](CCC(N)=O)NC(=O)[C@H](Cc2ccccc2)NC(=O)[C@H](CCCNC(=N)N)NC(=O)[C@H](CCCNC(=N)N)NC(=O)[C@@H]2CCCN2C(=O)[C@H]2CCCN2C(=O)[C@@H](CCCNC(=N)N)NC(=O)[C@H](Cc2ccc3ccccc3c2)NC(=O)[C@H](Cc2ccccc2)NC(=O)[C@H](Cc2ccccc2)NC(=O)[C@H](CCC(=O)O)NC(=O)CNC(=O)[C@H]([C@@H](C)O)NC(=O)[C@H](CCC(=O)O)NC(=O)[C@@H]2CCCN2C(=O)[C@H](CC(=O)O)NC1=O, The underlining is not visible, so the entry may be only part of the peptide; also called cyclo(F-F-Φ-r-p-P-R-R-F-Q-L-D-P-E-T-G-E)) [BH13] .
[A] 153
